Please provide measured IC50 for the entries that follow.
# ASSAYED_TARGET: hP2X3 (human Purinergic P2X receptors subtype 3), clone B (Homo sapiens, UniProt P56373)
# Sequence (P56373 whole entry): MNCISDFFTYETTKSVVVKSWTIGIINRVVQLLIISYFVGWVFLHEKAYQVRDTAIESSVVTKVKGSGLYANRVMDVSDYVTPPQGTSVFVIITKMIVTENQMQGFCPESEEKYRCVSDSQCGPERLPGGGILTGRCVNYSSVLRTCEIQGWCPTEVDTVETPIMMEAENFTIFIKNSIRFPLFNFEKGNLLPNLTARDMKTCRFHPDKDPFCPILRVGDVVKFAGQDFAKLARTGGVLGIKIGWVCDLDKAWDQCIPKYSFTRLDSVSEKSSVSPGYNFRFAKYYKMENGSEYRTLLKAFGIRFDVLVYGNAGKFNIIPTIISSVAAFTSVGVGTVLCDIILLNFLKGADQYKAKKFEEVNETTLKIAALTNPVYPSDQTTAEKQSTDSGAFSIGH
# METHOD_SUMMARY: hP2X3 FLIPR calcium (Fluo-4) antagonist assay, clone B
# CONDITION_PARAMETERS: Human P2X3 FLIPR Clone B IC50 (nM), RLE cells expressing hP2X3 clone B (NM_002559); agonist 500 nM α,β-methylene-ATP
Give bare numbers, in nM.

Example entries begin here.
[[record]]
molecule = "CC(=O)N1CCN(c2nc(NC(C)c3nc(-c4ccccc4)no3)c3c(n2)C(=O)N(C(C)C)C3)CC1 (stereo not shown)"
meas_value = 220

[[record]]
molecule = "CC(=O)N1CCN(c2nc(NCc3cc4ccccc4c(C)n3)c3c(n2)C(=O)N(C(C)C)C3)CC1"
meas_value = 16


Respectfully, I request IC50 for each entry included below.
1. CC(=O)N1CCN(c2nc3c(c(N4CCCC4c4ccc(Cl)cc4)n2)CN(C(C)C)C3=O)CC1 (stereo not shown)
2. CC(C)N1Cc2c(NC(c3ccccc3)c3ccc(Cl)cc3)nc(N(C)CCN(C)C)nc2C1=O (stereo not shown)
3. CC(=O)N1CCN(c2nc3c(c(N4CCCC4c4ccc(Cl)c(Cl)c4)n2)CN(C(C)C)C3=O)CC1 (stereo not shown)
4. CC(C)C(=O)N1CCN(c2nc(NC(C)(C)Cc3ccc(Cl)cc3)c3c(n2)C(=O)N(C(C)C)C3)CC1

Solution:
720
93
300
3000

Exercise: Would you mind telling me what IC50 value was observed for CC[C@H](C)N1Cc2c(NCc3cnc4ccccc4c3)nc(N3CCN(C(C)=O)CC3)nc2C1=O ?
Solution: 28

###

# ASSAYED_TARGET: hP2X3 (human Purinergic P2X receptors subtype 3), clone B (Homo sapiens, UniProt P56373)
# METHOD_SUMMARY: hP2X3 FLIPR calcium (Fluo-4) antagonist assay, clone B
# CONDITION_PARAMETERS: Human P2X3 FLIPR Clone B IC50 (nM), RLE cells expressing hP2X3 clone B (NM_002559); agonist 500 nM α,β-methylene-ATP
IC50 under 600 nM gets label 1, anything at or over 600 nM gets label 0.

Worked set:
[[record]]
compound = "CC(=O)N1CCN(c2nc(N[C@H](C)c3ccc4c(c3)CCC4)c3c(n2)C(=O)N(C(C)C)C3)CC1"
class_assignment = "label 1"

[[record]]
compound = "CC(=O)N1CCN(c2nc(NC(c3ccc(C(C)C)cc3)C(C)C)c3c(n2)C(=O)N(C(C)C)C3)CC1 (centres unmarked)"
class_assignment = "label 0"

[[record]]
compound = "CC(=O)N1CCN(c2nc3c(c(N4CCCC4c4cccc(Cl)c4)n2)CN(C(C)C)C3=O)CC1 (centres unmarked)"
class_assignment = "label 0"

[[record]]
compound = "CC(=O)N1CCN(c2nc3c(c(N4CCCC4c4cnc5ccccc5c4)n2)CN(C(C)C)C3=O)CC1 (centres unmarked) [Example 274]"
class_assignment = "label 1"

[[record]]
compound = "CCC(=O)N1CCN(c2nc(NC(C)(C)Cc3ccc(Cl)cc3)c3c(n2)C(=O)N(C(C)C)C3)CC1"
class_assignment = "label 1"

[[record]]
compound = "CC(C)N1Cc2c(NC(c3ccccc3)c3ccccc3)nc(NCCO)nc2C1=O"
class_assignment = "label 0"

[[record]]
compound = "CC(C)N1Cc2c(NCc3cnc4ccccc4c3)nc(N3CCC(N(C)C)C3)nc2C1=O (centres unmarked)"
class_assignment = "label 0"

[[record]]
compound = "CC(=O)N1CCN(c2nc(NC(C)C3COc4ccccc4O3)c3c(n2)C(=O)N(C(C)C)C3)CC1 (single isomer, unassigned) [Example 178]"
class_assignment = "label 0"


Exercise: Does the reported IC50 of the following compound sit strictly below 600 nM? CC(=O)N(C)C1CCN(c2nc(NCc3cnc4ccccc4c3)c3c(n2)C(=O)N(C(C)C)C3)C1 (centres unmarked)
Solution: label 0

Exercise: Below 600 nM on IC50? Entry CCC(=O)N1CCN(c2nc(NC(c3ccccc3)c3ccccc3)c3c(n2)C(=O)N(C(C)C)C3)CC1
Solution: label 1

Exercise: For this compound, is IC50 lower than 600 nM? CC(C)N1Cc2c(nc(N3CCN(C)C(=O)C3)nc2N(C)Cc2cc3ccccc3cn2)C1=O
Solution: label 0

Exercise: # check: IC50 < 600 nM for CC(C)N1Cc2c(NCc3cnc4ccccc4c3)nc(N3CCN4CCCC4C3)nc2C1=O (stereo in doubt)
Solution: label 0
